Origin of the recorded values: the supplement of paper PMC9170038

What apparent KD of MS2 coat protein was measured for each of the following?
# Test system: MS2 coat protein
# Test method notes: apparent KD of MS2 coat protein; higher = weaker reporter binding
# Conditions used: Eterna round: R107; input ligand: none
I only need the number, in nM, no unit after it.

Task: Entry AACAUGAGGAUCACCCAUGUCUGAACUGAAGGAGCGCUAAAUAAGGCAGGUAGGUCGCGGAAUUUUAUAUAUAUAUAUAUAUGGG [9.E] has what apparent KD of MS2 coat protein?
Result: 25.6

Task: Entry GGAUAGGACAGAAGGAGCGACAUGAGGAUCACCCAUGUCUACCACGUCGAAAGACGCUCAUGUCAGGUAGGUCGCUGUCCUAUCG [ArgXB 9 #StaticStem #MS2LeftOffAptamer] has what apparent KD of MS2 coat protein?
Result: 153

Task: Entry CUAAGAGCGGCGGCCGCCACUGGUAACCGAGAGGAGGAGCCUCUGACAUGAGGAUCACCCAUGUUCAGGACCGGGUCGUCUUAGA [#06 Same State - Tryptophan B] has what apparent KD of MS2 coat protein?
Result: 60.2

Task: Entry AAUAACGUGAGGAUCACCCACGUAAAAGAUACCAGAGUGAUGAUCCUCCCUUGGCAGCUUAACGCUGAUUGAUUACAAUCAGCGA has what apparent KD of MS2 coat protein?
Result: 58.7

Task: Entry UGUAUGUGAUCUGAUACCAGAGUGAAUAAACCUGAGGAUCACCCUGGUAGGCGAAAGCCACUCCCUUGGCAGCAGAUCGCAUACU has what apparent KD of MS2 coat protein?
Result: 139

Task: Entry AGAGUUAGACAAAAGUCUAGCUCACCAGAAGGAGCGUCCGAAAGGACAGGUAGGUCGCUGGUACAUGAGGAUCACCCAUGUUCCU [ArgAS 8 #OpenEnded] has what apparent KD of MS2 coat protein?
Result: 124

====

# Tested on: MS2 coat protein
# Test method notes: apparent KD of MS2 coat protein; higher = weaker reporter binding
# Conditions used: Eterna round: R107; input ligand: theophylline 20 uM
So basically: apparent KD of MS2 coat protein at 60 nM or higher? That is 1 (yes). Lower than 60 nM? That is 0 (no).

Task: Does the sequence AGAGUUAGACAAAAGUCUAGCUCACCAGAAGGAGCGUCCGAAAGGACAGGUAGGUCGCUGGUACAUGAGGAUCACCCAUGUUCCU [ArgAS 8 #OpenEnded] have recorded apparent KD of MS2 coat protein that is 60 nM or more?
Result: 1 (yes)

Task: Does the sequence GGUCGCCAACAUGGGUGGGUGACCCUGGAAGGAGCGAGCGAGAGCUCAGGUAGGUCGCCAGAACAUGAGGAUCACCCAUGUAAUA [(A)''-(M)'-(A)'(Arg1)-(Arg2)-(M1)-(M2)_Design14] have recorded apparent KD of MS2 coat protein that is 60 nM or more?
Result: 1 (yes)

Task: Does the sequence GGGUGGUAGGCGGCCGCCACUGAUUUUUAUAUAUAUAUGACAUGAGGAUCACCCAUGUAGAUAUGCAGGACCGGGCCUGUUGUUU [aaaN] have recorded apparent KD of MS2 coat protein that is 60 nM or more?
Result: 0 (no)

Task: Does the sequence GACAUGAGGAUCACCCAUGUAUUGGGUGAUACCAGCCUGAAUCAUGGCCCUUGGCAGCACCGCGCUAACUUUAUGUUUGCGAACC [Mavegeceri] have recorded apparent KD of MS2 coat protein that is 60 nM or more?
Result: 1 (yes)

Task: Does the sequence AAUAAGAUGAGGAUCACCCAUCUAAAAGAUACCAGAGUGAUGAUCCUCCCUUGGCAGCUUAACGCUGAUUGAUUACAAUCAGCGA have recorded apparent KD of MS2 coat protein that is 60 nM or more?
Result: 1 (yes)

Task: Does the sequence ACAUGAGGAUCACCCAUGUAACCUAGGGAAGGAGCGGUGUAAGAGCCAGGUAGGUCGCCCACAUGUGGAUCACCCAUGGUGAGGG [#24 Same State - Arginine A] have recorded apparent KD of MS2 coat protein that is 60 nM or more?
Result: 0 (no)

Task: Does the sequence CAUCCUAGUACAUGAGGAUCACCCAUGUAUCGAGGACCGGUACGGCCGCCACUCGAAUGGCGGAUCGUUAAUCCUCUAGGAUGGA [Tryp A Ex 4a] have recorded apparent KD of MS2 coat protein that is 60 nM or more?
Result: 0 (no)

Task: Does the sequence UACCGGUGACUCGAUACCAGUCCUCUAAAAUACAUGAGGAUCACCCAUGUAACCUUCCCAGACCCUUGGCAGCGACACAUGGAUA [theeternabot_sameState_MS2_Theo_B_49] have recorded apparent KD of MS2 coat protein that is 60 nM or more?
Result: 1 (yes)

Task: Does the sequence UUAUUUAACGGAAGGAGCGCGGAUAAAAUAGUGGGUAAACAUGAGGAUCACCCAUGUAAACCGCAGGUAGGUCGCCGAUAUUUAU [AstrosEXyARgB#5] have recorded apparent KD of MS2 coat protein that is 60 nM or more?
Result: 0 (no)

Task: Does the sequence UAUAUAUAGAUGGAUACCAGCAGAGAAAACGUUUAUCCUAACAUGAGGAUCACCCAUGUAUGCCCUUGGCAGCUGUUUAUAUAUA [8.I] have recorded apparent KD of MS2 coat protein that is 60 nM or more?
Result: 0 (no)

Task: Does the sequence UGAAAGUAGGGAAGGAGCGCUACAACAUGAGGAUCACCCAUGUAAUGAGGAUCACCCAUGUGGCAGGUAGGUCGCCCAAAACAUG [#14 Same State - Arginine B] have recorded apparent KD of MS2 coat protein that is 60 nM or more?
Result: 1 (yes)

Task: Does the sequence GGAUAGGACAGAAGGAGCGACAUCGCCGAAAGGCUGGUAAGAUCACAUGAGGAUCACCCAUGUCAGGUAGGUCGCUGUCCUAUCG [ArgXB 11 #Zipper #MS2Left #StaticStem #Blueprint] have recorded apparent KD of MS2 coat protein that is 60 nM or more?
Result: 1 (yes)

Task: Does the sequence GGUCGCCAACAUGGGUGGGCGACCCUGGAAGGAGCGAGCGAGAGCUCAGGUAGGUCGCCAGAACAUGAGGAUCACCCAUGUAAUA [(A)''-(M)'-(A)'(Arg1)-(Arg2)-(M1)-(M2)_Design13] have recorded apparent KD of MS2 coat protein that is 60 nM or more?
Result: 1 (yes)

Task: Does the sequence UGCGAUUGCUCAGAUACCAGACAUGAGGAUCACCCAUGUACCAAGGUAAAGAAAUAACGUGUCCCUUGGCAGCUGAGCAAUCGCU [MAT - Exclusion Theophlline B - Mod of Eli - D9] have recorded apparent KD of MS2 coat protein that is 60 nM or more?
Result: 0 (no)

Task: Does the sequence AAGGUGAUCCGUGAUACCAGCUCAACAUGAGGAUCACCCAUGUAAGCCUGGAAACAGGCGAGCCCUUGGCAGCACGGUAAUAAUA [(M)'-(Theo1)-(Ms2)-(Theo2)-(M'')] have recorded apparent KD of MS2 coat protein that is 60 nM or more?
Result: 0 (no)

Task: Does the sequence CACAGUGCGAAAUUGAAUUCGCACGAUCCUCGAGGACCGGUACGGCCGCCACUCGCGCGGGUCGUACAUGAGGAUCACCCAUGUC [Zatiin] have recorded apparent KD of MS2 coat protein that is 60 nM or more?
Result: 1 (yes)

Task: Does the sequence UGUACCUGUAUCUGGUCCAUAGUAUAACCUCGAGGACCGGUACGGCCGCCACUCGUCGGACCACAUGAGGAUCACCCAUGUACCG [theeternabot_exclusion_MS2_Trp_A_23] have recorded apparent KD of MS2 coat protein that is 60 nM or more?
Result: 0 (no)

Task: Does the sequence AGAUUCGACACGGCCGCCACUCGUGGUGGAUUACCUAGUGUCGAACAUGAGGAUCACCCAUGUACGAGGACCGGGUGUUGAGUCU [XTryp B #18] have recorded apparent KD of MS2 coat protein that is 60 nM or more?
Result: 1 (yes)

Task: Does the sequence AAAGACAUGAGGAUCACCCAUGUGGGUGGGCGAGGACCGGUACGGCCGCCACUCGUGGGCGGGAAGGGAUAUUUAAUAAGGAAGA [same state--tryptophan A 1st shot] have recorded apparent KD of MS2 coat protein that is 60 nM or more?
Result: 1 (yes)

Task: Does the sequence AUAACAUGAGGAUCACCCAUGUUGAGUGAUACCAGACCAUGUAGUGUCCCUUGGCAGCACAGGUAAAGUUGUAAAUAACGAUAGA [#13 SameState-TheophyllineA] have recorded apparent KD of MS2 coat protein that is 60 nM or more?
Result: 1 (yes)

Task: Does the sequence UCGUUUGAGGCGGCCGCCACUGGUCUCAUGGUCAACAUGAGGAUCACCCAUGUAUCUUAGUUAAGCAGGACCGGGCCUCGAGCGA [#18 Exclusion Tryptophan B] have recorded apparent KD of MS2 coat protein that is 60 nM or more?
Result: 1 (yes)

Task: Does the sequence AACGUCUUGUCGGCCGCCACUGUAUGGUGCGUGACAUGAAACAUGAGGAUCACCCAUGUAGCAUGCAGGACCGGGACAGUGCCAA [Beriaran] have recorded apparent KD of MS2 coat protein that is 60 nM or more?
Result: 0 (no)

Task: Does the sequence ACGCGCUGGGCGGCCGCCACUCACCUGCCGUGGACAUUUCGAGGUCACAUGAGGAUCACCCAUGUGAGGACCGGGCCCUGUAGGC [theeternabot_exclusion_MS2_Trp_B_37] have recorded apparent KD of MS2 coat protein that is 60 nM or more?
Result: 0 (no)
